Experiment: growth suppression of PTEN-null HCT116 cells, cell-based, validation, diverse DP compound set (AID 999);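 further: 100% = median luminescence of untreated cell control wells and 0% = no signal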
Conditions: CellTiter-Glo, 60 h, at 10 µM, active compounds read low
PARAMETER_MEASURED: viability (%)
Give a bare numeral; the unit % is implied.

C[C@@H]1CC[C@]2(C(=O)O)CC[C@]3(C)C(=CCC4[C@@]5(C)C[C@@H](O)[C@H](O)[C@@](C)(CO)C5[C@H](O)C[C@]43C)C2[C@H]1C (stereo not given in full): 84.7
CSc1ccc(/C=C2/C(C)=C(CC(=O)O)c3cc(F)ccc32)cc1: 98

Could you share which viability value was measured for "C=C(C)[C@H]1CC=C(CO)CC1" ?
96

Similarly, "COc1cc(-c2ccc(=O)[nH]n2)ccc1OC(F)F" ?
94.7

Similarly, "O=c1c(-c2ccc(O)cc2)coc2cc(O)ccc12" ?
89.7

Similarly, "Nc1ccn([C@H]2CC[C@@H](CO)O2)c(=O)n1" ?
93.9

Similarly, "COc1ccc(CCN(C)CCCN2CCc3cc(OC)c(OC)cc3CC2=O)cc1OC" ?
97.1
